Provenance of the data: ChEMBL document CHEMBL6083263

MEASURED TARGET: Integrin alpha-V/beta-6 (Homo sapiens, UniProt P06756+P18564)
Sequence (P06756 31-889 limits assumed): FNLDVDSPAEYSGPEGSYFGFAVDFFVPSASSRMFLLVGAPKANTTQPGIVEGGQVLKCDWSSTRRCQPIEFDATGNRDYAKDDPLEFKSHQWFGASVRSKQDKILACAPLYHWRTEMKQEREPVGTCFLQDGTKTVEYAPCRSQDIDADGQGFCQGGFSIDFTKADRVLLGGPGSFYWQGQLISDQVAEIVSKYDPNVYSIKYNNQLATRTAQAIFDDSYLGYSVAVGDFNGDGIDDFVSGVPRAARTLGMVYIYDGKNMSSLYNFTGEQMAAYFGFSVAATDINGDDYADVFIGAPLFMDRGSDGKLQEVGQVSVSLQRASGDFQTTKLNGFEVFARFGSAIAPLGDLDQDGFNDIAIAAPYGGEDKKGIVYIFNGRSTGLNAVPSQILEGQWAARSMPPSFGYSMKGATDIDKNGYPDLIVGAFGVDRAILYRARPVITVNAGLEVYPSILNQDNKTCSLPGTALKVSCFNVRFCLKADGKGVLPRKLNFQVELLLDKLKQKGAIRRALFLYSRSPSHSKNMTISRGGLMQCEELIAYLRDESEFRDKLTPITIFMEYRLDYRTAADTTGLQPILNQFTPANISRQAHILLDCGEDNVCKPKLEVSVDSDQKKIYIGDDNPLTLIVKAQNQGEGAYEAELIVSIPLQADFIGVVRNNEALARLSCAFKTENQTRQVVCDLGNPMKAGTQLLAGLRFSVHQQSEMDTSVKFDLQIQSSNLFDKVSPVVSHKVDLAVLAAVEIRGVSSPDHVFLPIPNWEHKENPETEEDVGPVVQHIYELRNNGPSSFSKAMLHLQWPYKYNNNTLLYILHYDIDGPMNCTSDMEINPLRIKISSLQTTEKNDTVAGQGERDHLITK
Sequence (P06756 891-1048 limits assumed): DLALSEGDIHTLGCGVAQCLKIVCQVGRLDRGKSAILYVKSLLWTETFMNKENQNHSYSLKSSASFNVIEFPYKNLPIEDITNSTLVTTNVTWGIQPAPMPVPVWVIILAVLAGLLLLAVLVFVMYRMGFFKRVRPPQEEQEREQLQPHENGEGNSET
Sequence (P18564 22-788 limits assumed): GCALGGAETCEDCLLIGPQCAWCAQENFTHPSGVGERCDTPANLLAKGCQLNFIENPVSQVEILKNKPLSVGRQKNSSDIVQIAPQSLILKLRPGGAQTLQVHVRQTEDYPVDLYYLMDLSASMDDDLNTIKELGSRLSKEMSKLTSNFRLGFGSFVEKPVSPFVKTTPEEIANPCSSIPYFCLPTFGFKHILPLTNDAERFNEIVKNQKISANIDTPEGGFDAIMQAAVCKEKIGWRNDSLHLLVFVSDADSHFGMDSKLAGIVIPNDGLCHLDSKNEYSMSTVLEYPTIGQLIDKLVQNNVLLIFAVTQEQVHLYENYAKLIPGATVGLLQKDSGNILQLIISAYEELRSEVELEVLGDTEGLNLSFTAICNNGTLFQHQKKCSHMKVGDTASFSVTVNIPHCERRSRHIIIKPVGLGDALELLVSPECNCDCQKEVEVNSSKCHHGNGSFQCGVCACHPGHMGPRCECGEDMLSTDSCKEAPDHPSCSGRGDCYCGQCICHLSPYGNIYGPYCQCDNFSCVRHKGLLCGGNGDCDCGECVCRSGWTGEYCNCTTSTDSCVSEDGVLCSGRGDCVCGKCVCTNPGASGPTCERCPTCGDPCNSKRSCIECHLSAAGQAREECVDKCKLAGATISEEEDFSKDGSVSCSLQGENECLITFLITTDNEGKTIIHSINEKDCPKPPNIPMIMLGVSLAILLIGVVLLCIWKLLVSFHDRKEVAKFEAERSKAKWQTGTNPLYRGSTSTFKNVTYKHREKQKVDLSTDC
EXPERIMENT SUMMARY: Inhibition of Integrin alphaVbeta6 (unknown origin) mediated TGF-beta1 activation expressed in primary epithelial cells cocultured with idiopathic pulmonary fibroblast cells assessed as downregulation of FN mRNA expression measured after 72 hrs by qPCR assay
Format: cell-based, Epithelial cell
ASSAY READOUT: IC50 (nM)

SMILES ENTRY | ASSAY READOUT | MEASURED VALUE
O=C(O)[C@H](c1cc(F)ccc1[C@@H]1CCC2(CC2)CO1)N1CC[C@@H](OCCCCc2ccc3c(n2)NCCC3)C1 | IC50 | 20.3

====

EXPERIMENT SUMMARY: AUCinfinity in C57BL/6 mouse at 30 mg/kg, po measured upto 24 hrs by LC/MS-MS analysis
Format: ADME, organism-based
CONDITION SET: in vivo

SMILES ENTRY | AUC(0-inf) [ng·h/mL]
O=C(O)[C@H](c1cc(F)ccc1[C@@H]1CCC2(CC2)CO1)N1CC[C@@H](OCCCCc2ccc3c(n2)NCCC3)C1 | 19000

====

EXPERIMENT SUMMARY: Oral bioavailability in Sprague-Dawley rat at 30 mg/kg measured upto 24 hrs by LC/MS-MS analysis
Format: ADME, organism-based
CONDITION SET: in vivo

SMILES ENTRY | bioavailability
O=C(O)[C@H](c1cc(F)ccc1[C@@H]1CCC2(CC2)CO1)N1CC[C@@H](OCCCCc2ccc3c(n2)NCCC3)C1 | 74%

====

EXPERIMENT SUMMARY: Cmax in Sprague-Dawley rat at 30 mg/kg, po measured upto 24 hrs by LC/MS-MS analysis
Format: ADME, organism-based
CONDITION SET: in vivo
ASSAY READOUT: Cmax (ng/mL)

SMILES ENTRY | MEASURED VALUE
O=C(O)[C@H](c1cc(F)ccc1[C@@H]1CCC2(CC2)CO1)N1CC[C@@H](OCCCCc2ccc3c(n2)NCCC3)C1 | 14000

====

EXPERIMENT SUMMARY: Cmax in cynomolgus […] at 5 mg/kg, po measured upto 24 hrs by LC/MS-MS analysis
Format: ADME, organism-based, Macaca fascicularis
CONDITION SET: in vivo
ASSAY READOUT: Cmax (ng/mL)

SMILES ENTRY | MEASURED VALUE
O=C(O)[C@H](c1cc(F)ccc1[C@@H]1CCC2(CC2)CO1)N1CC[C@@H](OCCCCc2ccc3c(n2)NCCC3)C1 | 540

====

MEASURED TARGET: Integrin alpha-V/beta-6 (Homo sapiens, UniProt P06756+P18564)
EXPERIMENT SUMMARY: Inhibition of Integrin alphaVbeta6 (unknown origin) mediated TGF-beta1 activation expressed in HEK293 cells cocultured with MLEC cells expressing luciferase reporter
Format: cell-based
pIC50: −log10 of the molar value.
ASSAY READOUT: pIC50

SMILES ENTRY | ASSAY READOUT | MEASURED VALUE
O=C(O)[C@H](c1cc(F)ccc1[C@@H]1CCC2(CC2)CO1)N1CC[C@@H](OCCCCc2ccc3c(n2)NCCC3)C1 | pIC50 | 8.58

====

MEASURED TARGET: Integrin alpha-V/beta-1 (Homo sapiens, UniProt P05556+P06756)
Sequence (P05556 21-798 limits assumed, one chain of several): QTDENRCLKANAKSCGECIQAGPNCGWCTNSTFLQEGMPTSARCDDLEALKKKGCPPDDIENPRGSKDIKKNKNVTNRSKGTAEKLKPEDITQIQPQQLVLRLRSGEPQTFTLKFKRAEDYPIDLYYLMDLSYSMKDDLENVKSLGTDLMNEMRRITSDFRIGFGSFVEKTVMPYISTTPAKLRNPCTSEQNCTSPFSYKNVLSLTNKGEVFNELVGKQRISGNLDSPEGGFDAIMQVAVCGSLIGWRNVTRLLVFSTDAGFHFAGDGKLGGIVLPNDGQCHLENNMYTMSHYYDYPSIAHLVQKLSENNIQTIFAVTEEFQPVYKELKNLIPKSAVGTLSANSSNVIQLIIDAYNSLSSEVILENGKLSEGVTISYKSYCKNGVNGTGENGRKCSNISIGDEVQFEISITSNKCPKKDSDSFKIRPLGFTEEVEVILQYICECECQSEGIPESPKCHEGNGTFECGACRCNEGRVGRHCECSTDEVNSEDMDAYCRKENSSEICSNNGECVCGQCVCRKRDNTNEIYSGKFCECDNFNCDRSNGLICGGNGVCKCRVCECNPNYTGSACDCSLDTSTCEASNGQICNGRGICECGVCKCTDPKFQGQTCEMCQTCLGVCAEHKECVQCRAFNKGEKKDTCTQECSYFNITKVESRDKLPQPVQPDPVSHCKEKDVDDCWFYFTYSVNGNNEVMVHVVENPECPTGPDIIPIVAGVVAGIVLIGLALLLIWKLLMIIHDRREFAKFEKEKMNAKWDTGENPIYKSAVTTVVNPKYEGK
EXPERIMENT SUMMARY: Displacement of fluorescein labeled ACRGDGWC from human Integrin alphaVbeta1 preincubated for 15 mins followed by fluorescein labeled ACRGDGWC addition and measured after 1 hr by fluorescence polarization assay
pIC50: −log10 of the molar value.
ASSAY READOUT: pIC50

COMPOUND | MEASURED VALUE
O=C(O)[C@H](c1ccccc1)N1CC[C@@H](OCCCCc2ccc3c(n2)NCCC3)C1 | 5.41
CC1(C)CCCC(c2ccccc2[C@@H](C(=O)O)N2CC[C@@H](OCCCCc3ccc4c(n3)NCCC4)C2)O1 (stereo not given in full) | 7.14
O=C(NCCCc1ccc2c(n1)NCCC2)C1CCN([C@@H](C(=O)O)c2ccccc2)CC1 | 4.52
CC1(C)CC[C@@H](c2ccccc2[C@@H](C(=O)O)N2CC[C@@H](OCCCCc3ccc4c(n3)NCCC4)C2)OC1 | 6.08
CC1(C)CCO[C@H](c2ccccc2[C@@H](C(=O)O)N2CC[C@@H](OCCCCc3ccc4c(n3)NCCC4)C2)C1 | 6.24
O=C(O)[C@H](c1cc(F)ccc1[C@@H]1CCOC1)N1CC[C@@H](OCCCCc2ccc3c(n2)NCCC3)C1 | 6.77
O=C(O)[C@H](c1ccccc1C1CC1)N1CC[C@@H](n2cc(CCc3ccc4c(n3)NCCC4)cn2)C1 | 7.25
O=C(O)CN1CC[C@H](C(=O)NCCCc2ccc3c(n2)NCCC3)C1 | 5.80
O=C(O)[C@H](c1cc(F)ccc1[C@H]1CCOC1)N1CC[C@@H](OCCCCc2ccc3c(n2)NCCC3)C1 | 6.96
CC1(C)CC[C@@H](c2ccc(F)cc2[C@@H](C(=O)O)N2CC[C@@H](OCCCCc3ccc4c(n3)NCCC4)C2)OC1 | 6.16
O=C(O)[C@H](c1ccccc1C1CC1)N1CC[C@@H](Oc2ccc(Cc3ccc4c(n3)NCCC4)cc2)C1 | 7.57
O=C(O)[C@H](c1cc(F)ccc1[C@@H]1CCCO1)N1CC[C@@H](OCCCCc2ccc3c(n2)NCCC3)C1 | 7.04
O=C(O)[C@H](c1ccccc1C1CC1)N1CC[C@@H](OCCCCCc2ccc3c(n2)NCCC3)C1 | 7.03
O=C(O)CN1CC[C@@H](C(=O)NCCCc2ccc3c(n2)NCCC3)C1 | 5.40
O=C(O)CN1CCC(C(=O)NCCCc2ccc3c(n2)NCCC3)CC1 | 6.19
O=C(O)[C@H](c1ccccc1C1CC1)N1CC[C@@H](OCCCCc2ccc3c(n2)NCCC3)C1 | 7.02
O=C(O)[C@H](c1cc(F)ccc1C1CC1)N1CC[C@@H](OCCCCc2ccc3c(n2)NCCC3)C1 | 7.04
O=C(O)[C@H](c1cc(F)ccc1[C@@H]1CCC2(CC2)CO1)N1CC[C@@H](OCCCCc2ccc3c(n2)NCCC3)C1 | 6.31
O=C(O)[C@H](c1cc(F)ccc1[C@@H]1CCCCO1)N1CC[C@@H](OCCCCc2ccc3c(n2)NCCC3)C1 | 7.06
O=C(O)[C@H](c1cc(F)ccc1[C@H]1CCCCO1)N1CC[C@@H](OCCCCc2ccc3c(n2)NCCC3)C1 | 6.89
O=C(NCCCc1ccc2c(n1)NCCC2)[C@@H]1CCN([C@H](C(=O)O)c2ccccc2)C1 | 5.72
O=C(NCCCc1ccc2c(n1)NCCC2)C1CCN([C@H](C(=O)O)c2ccccc2)CC1 | 4.85
O=C(O)[C@H](c1ccccc1C1CC1)N1C[C@@H](F)[C@@H](OCCCCc2ccc3c(n2)NCCC3)C1 | 6.89
O=C(O)[C@H](c1cccc(C2CC2)c1)N1CC[C@@H](OCCCCc2ccc3c(n2)NCCC3)C1 | 5.96
O=C(O)[C@H](c1cc(F)ccc1C1CCOCC1)N1CC[C@@H](OCCCCc2ccc3c(n2)NCCC3)C1 | 6.92
O=C(O)[C@H](c1ccccc1C1CC1)N1CC[C@@H](OCCCc2ccc3c(n2)NCCC3)C1 | 6.60
O=C(O)[C@H](c1ccccc1C1CCCOC1)N1CC[C@@H](OCCCCc2ccc3c(n2)NCCC3)C1 (stereo not given in full) | 6.52
O=C(O)[C@H](c1ccc(C2CC2)cc1)N1CC[C@@H](OCCCCc2ccc3c(n2)NCCC3)C1 | 5.80
O=C(O)[C@H](c1cc(F)ccc1[C@H]1CCCO1)N1CC[C@@H](OCCCCc2ccc3c(n2)NCCC3)C1 | 6.71
O=C(NCCCc1ccc2c(n1)NCCC2)[C@@H]1CCN([C@@H](C(=O)O)c2ccccc2)C1 | 5.02
